- STUDY_TARGET: Syk catalytic domain (aa 356-635 with a C-terminal His-tag) (Homo sapiens, UniProt P43405)
- Construct: His-tag (C); made in house
- ASSAY_NOTES: In vitro Syk kinase activity measured by trFRET, Syk catalytic domain
- Format: biochemical
- EXPERIMENTAL_CONDITIONS: Syk catalytic domain (aa 356-635), trFRET, 0.001 mM ATP
pIC50: −log10 of the molar value.
READOUT_KIND: pIC50

COc1ccc2c(c1)c(-c1cc3c(ncc4cnc(CCCO)n43)[nH]1)cn2C : > 7.00
Cn1cc(-c2cc3c(ncc4cnn(C)c43)[nH]2)c2cc(C(C)(C)O)ccc21 : > 7.00
COCCNS(=O)(=O)c1cccc(-c2cc3c(ncc4cnn(C)c43)[nH]2)c1 : 6.00 to 7.00
COCCN(C)c1cnc2cnc3[nH]c(-c4cn(C)c5ccc(OC)cc45)cc3n12 : > 7.00
Cc1cc(-c2cc3c(ncc4cnn(C)c43)[nH]2)ccc1N1CCN(C)CC1 : > 7.00
Cc1ccc(-c2nc(C)n3c2cnc2[nH]ccc23)c2cc[nH]c12 : 5.00 to 6.00

## Input Please tell me: pIC50 of Cn1cc(-c2cc3c(ncc4cnn(C)c43)[nH]2)c2cc(C(=O)NCCN3CCOCC3)ccc21 , system Syk catalytic domain (aa 356-635 with a C-terminal His-tag) (Homo sapiens, UniProt P43405)?
## Output > 7.00

## Input Please tell me: pIC50 of CC(C)(O)c1ccc(-c2nc(-c3ccccc3CO)n3c2cnc2[nH]ccc23)cc1 , system Syk catalytic domain (aa 356-635 with a C-terminal His-tag) (Homo sapiens, UniProt P43405)?
## Output > 7.00

## Input Please tell me: pIC50 of CC(=O)NC(C)(C)c1ccc(-c2nc(C3CCCCC3)n3c2cnc2[nH]ccc23)cc1 , system Syk catalytic domain (aa 356-635 with a C-terminal His-tag) (Homo sapiens, UniProt P43405)?
## Output > 7.00

## Input Please tell me: pIC50 of COc1ccc2c(c1)c(-c1cc3c(ncc4cnn(C)c43)[nH]1)nn2C , system Syk catalytic domain (aa 356-635 with a C-terminal His-tag) (Homo sapiens, UniProt P43405)?
## Output 6.00 to 7.00

## Input Please tell me: pIC50 of CC(C)(O)c1ccc(-c2ncn3c2cnc2[nH]ccc23)cc1 , system Syk catalytic domain (aa 356-635 with a C-terminal His-tag) (Homo sapiens, UniProt P43405)?
## Output > 7.00

## Input Please tell me: pIC50 of CC(=O)c1ccc(-c2cc3c(ncc4cnc(C(=O)NCCN(C)C)n43)[nH]2)cc1 , system Syk catalytic domain (aa 356-635 with a C-terminal His-tag) (Homo sapiens, UniProt P43405)?
## Output 6.00 to 7.00

## Input Please tell me: pIC50 of COCCNC(=O)Cn1cc(-c2cc3c(ncc4cnn(C)c43)[nH]2)c2cc(OC)ccc21 , system Syk catalytic domain (aa 356-635 with a C-terminal His-tag) (Homo sapiens, UniProt P43405)?
## Output > 7.00
